Molecular target: T1, C3G full-length wild type (human, isoform a, residues 4-1077) (human, UniProt Q13905-1 4-1077)
T1 sequence (looked up): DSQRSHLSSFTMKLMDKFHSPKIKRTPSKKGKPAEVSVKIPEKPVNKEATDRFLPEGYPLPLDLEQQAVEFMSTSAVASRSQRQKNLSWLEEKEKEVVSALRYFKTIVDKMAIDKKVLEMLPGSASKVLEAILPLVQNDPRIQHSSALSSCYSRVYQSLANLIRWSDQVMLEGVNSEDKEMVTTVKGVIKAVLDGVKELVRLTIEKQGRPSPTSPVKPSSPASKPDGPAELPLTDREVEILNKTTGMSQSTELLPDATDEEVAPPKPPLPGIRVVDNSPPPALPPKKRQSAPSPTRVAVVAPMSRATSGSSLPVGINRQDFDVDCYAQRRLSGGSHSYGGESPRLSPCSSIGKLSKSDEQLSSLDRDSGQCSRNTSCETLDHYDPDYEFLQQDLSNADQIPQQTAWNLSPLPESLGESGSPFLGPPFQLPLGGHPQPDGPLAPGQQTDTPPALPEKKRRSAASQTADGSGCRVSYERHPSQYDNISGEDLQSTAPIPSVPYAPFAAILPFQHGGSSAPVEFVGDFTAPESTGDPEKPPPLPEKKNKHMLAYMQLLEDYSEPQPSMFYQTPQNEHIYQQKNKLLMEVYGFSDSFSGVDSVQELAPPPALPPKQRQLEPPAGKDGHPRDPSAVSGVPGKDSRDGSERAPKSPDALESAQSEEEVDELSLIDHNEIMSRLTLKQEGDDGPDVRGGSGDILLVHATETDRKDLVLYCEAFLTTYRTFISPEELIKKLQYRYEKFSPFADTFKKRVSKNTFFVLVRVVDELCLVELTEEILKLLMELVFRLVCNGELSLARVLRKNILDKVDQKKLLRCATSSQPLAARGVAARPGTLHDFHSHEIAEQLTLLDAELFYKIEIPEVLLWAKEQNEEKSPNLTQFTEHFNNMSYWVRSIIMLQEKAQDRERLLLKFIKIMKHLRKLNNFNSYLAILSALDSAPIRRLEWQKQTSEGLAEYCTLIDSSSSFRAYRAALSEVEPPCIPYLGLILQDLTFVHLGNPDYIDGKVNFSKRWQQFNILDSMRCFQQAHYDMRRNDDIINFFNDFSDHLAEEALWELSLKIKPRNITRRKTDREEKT
Assay: cell-based or functional assay
Endpoint label: AC50 of the dose-response activation of the GEF activity of C3G (1 µM) on Rap1b:mant-dGDP
Answers are plain numbers, in µM.

Binder	Result unit	Reported measurement
CrkL-SH2-SH3N (residues 1-182) (domain or fragment, human, UniProt P46109 1-182, looked up) MSSARFDSSDRSAWYMGPVSRQEAQTRLQGQRHGMFLVRDSSTCPGDYVLSVSENSRVSHYIINSLPNRRFKIGDQEFDHLPALLEFYKIHYLDTTTLIEPAPRYPSPPMGSVSAPNLPTAEDNLEYVRTLYDFPGNDAEDLPFKKGEILVIIEKPEEQWWSARNKDGRVGMIPVPYVEKLV	µM	15.8

Attention now turns to another entry.
Name the recorded AC50 of the dose-response activation of the GEF activity of C3G (1 µM) on Rap1b:mant-dGDP for CrkL-SH3N-SH3C (residues 125-303) (domain or fragment, human, UniProt P46109 125-303, looked up) LEYVRTLYDFPGNDAEDLPFKKGEILVIIEKPEEQWWSARNKDGRVGMIPVPYVEKLVRSSPHGKHGNRNSNSYGIPEPAHAYAQPQTTTPLPAVSGSPGAAITPLPSTQNGPVFAKAIQKRVPCAYDKTALALEVGDIVKVTRMNINGQWEGEVNGRKGLFPFTHVKIFDPQNPDENE . 19.8
